Below is a list of entries, each paired with its recorded pIC50 value.
Molecular target: RAC-gamma serine/threonine-protein kinase (Homo sapiens, UniProt Q9Y243)
Sequence (Q9Y243 whole entry): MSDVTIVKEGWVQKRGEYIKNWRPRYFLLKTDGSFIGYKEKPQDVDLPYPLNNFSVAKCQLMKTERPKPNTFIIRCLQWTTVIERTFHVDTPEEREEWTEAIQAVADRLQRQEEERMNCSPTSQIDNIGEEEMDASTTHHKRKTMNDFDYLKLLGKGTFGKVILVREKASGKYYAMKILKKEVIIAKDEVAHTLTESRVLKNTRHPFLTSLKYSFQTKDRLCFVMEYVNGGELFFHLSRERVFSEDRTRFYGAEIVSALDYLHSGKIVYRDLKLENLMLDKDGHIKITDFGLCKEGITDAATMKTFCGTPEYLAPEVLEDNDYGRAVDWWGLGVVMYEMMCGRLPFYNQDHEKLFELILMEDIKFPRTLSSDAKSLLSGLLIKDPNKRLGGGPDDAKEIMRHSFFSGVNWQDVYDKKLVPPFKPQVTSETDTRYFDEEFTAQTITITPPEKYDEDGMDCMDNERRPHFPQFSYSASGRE
Test: Inhibition of Akt3
pIC50: −log10 of the molar value.
reportedProperty: pIC50

>>> measvalue("CCN(CC)CCNC(=O)c1ccc2nc(-c3ccc(CN4CCC(n5c(=O)[nH]c6ccccc65)CC4)cc3)c(-c3ccccc3)nc2c1")
5.13
>>> measvalue("CCN(CC)CCNC(=O)c1ccc2nc(-c3ccccc3)c(-c3ccc(CN4CCC(n5c(=O)[nH]c6ccccc65)CC4)cc3)nc2c1")
5.14

###

Item-by-item account of pIC50
Target: Serine/threonine-protein kinase Sgk1 (Homo sapiens, UniProt O00141)
Sequence (O00141 whole entry): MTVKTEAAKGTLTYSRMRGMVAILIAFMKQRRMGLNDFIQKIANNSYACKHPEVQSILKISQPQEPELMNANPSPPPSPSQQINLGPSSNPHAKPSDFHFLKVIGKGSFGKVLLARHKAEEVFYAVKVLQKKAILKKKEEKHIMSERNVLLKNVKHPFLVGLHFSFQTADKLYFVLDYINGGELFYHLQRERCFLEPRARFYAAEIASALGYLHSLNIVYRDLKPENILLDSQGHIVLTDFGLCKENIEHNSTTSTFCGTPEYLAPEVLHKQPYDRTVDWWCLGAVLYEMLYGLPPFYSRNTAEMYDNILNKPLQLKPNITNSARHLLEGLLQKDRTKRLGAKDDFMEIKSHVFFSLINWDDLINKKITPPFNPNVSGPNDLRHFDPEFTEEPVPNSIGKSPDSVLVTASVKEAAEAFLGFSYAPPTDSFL
pIC50: −log10 of the molar value.
reportedProperty: pIC50

>>> measvalue("CCN(CC)CCNC(=O)c1ccc2nc(-c3ccccc3)c(-c3ccc(CN4CCC(n5c(=O)[nH]c6ccccc65)CC4)cc3)nc2c1")
"< 4.30"
>>> measvalue("CCN(CC)CCNC(=O)c1ccc2nc(-c3ccc(CN4CCC(n5c(=O)[nH]c6ccccc65)CC4)cc3)c(-c3ccccc3)nc2c1")
"< 4.30"
